This section presents molecules with their documented mortality at 3 ppm values.
test system: green peach aphid (Myzus persicae); experiment: Insecticidal test for green peach aphid (10 ppm and 3 ppm), Test Example 2; format: in vivo; settings: Chemical concentration of spray 3 ppm, same manner as Test Example 1
A number alone suffices; assume %.

Known results for molecules:
Cc1cc(NC(=O)c2cnccc2C(F)(F)F)on1 : 100
O=C(Nc1nncs1)c1cnccc1C(F)(F)F [Comparative Compound b, reference compound] : 0

response.value for O=C(Nc1ccno1)c1cnccc1C(F)(F)F (field: mortality at 3 ppm) = 100

For Cc1cnc(NC(=O)c2cnccc2C(F)(F)F)s1 [Comparative Compound a, reference compound] the molecule record lists mortality at 3 ppm as 0
